IC50 tested on UniProtKB F1QCV2: recorded values
Sequence (F1QCV2 whole entry): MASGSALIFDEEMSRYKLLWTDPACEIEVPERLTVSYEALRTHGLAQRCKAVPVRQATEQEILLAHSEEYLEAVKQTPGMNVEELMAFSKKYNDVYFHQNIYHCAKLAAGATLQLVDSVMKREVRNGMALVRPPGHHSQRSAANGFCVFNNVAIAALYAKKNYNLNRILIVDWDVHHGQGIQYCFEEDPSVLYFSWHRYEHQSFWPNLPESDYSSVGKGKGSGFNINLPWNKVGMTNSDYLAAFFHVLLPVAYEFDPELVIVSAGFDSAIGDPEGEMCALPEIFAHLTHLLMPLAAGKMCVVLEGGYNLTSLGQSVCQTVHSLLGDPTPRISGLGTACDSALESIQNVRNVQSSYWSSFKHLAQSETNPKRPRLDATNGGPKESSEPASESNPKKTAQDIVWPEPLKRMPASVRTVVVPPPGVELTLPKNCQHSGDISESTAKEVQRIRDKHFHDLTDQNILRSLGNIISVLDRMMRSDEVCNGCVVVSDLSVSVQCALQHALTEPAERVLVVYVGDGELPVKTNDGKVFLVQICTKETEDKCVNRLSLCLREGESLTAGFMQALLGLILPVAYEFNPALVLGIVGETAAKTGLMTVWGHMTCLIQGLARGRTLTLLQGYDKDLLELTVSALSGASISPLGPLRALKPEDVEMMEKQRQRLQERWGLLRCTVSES
The reply should be a number in nM, with the unit left off.

O=C(NO)c1ccc(CNCc2ccccc2)cc1 ... 37

Request the reported IC50 associated with O=C(/C=C/C1CCN(CCc2c[nH]c3ccccc23)CC1)NO
29

And the next one, Cn1cc(CN2CCC(/C=C/C(=O)NO)CC2)c2ccccc21 ?
58

And the next one, CN1CCN(Cc2ccc(C(=O)NO)cc2)CC1 ?
43

And the next one, O=C(NO)c1ccc(CNCc2ccsc2)cc1 ?
24

And the next one, CN1CCc2c(c3ccccc3n2Cc2ccc(C(=O)NO)cc2)C1 [TUBASTATIN A] ?
220

And the next one, O=C(/C=C/C1CCN(Cc2cccc3ccccc23)CC1)NO ?
20

----------
Test system: HEK293
Experiment: Cytotoxicity against human HEK293 cells assessed as cell viability at 50 uM measured after 24 hrs by Alamar Blue assay
Type: toxicity, cell-based
Settings: hek293, 24 h
# Activity values compiled below
The reply should be a number in %, with the unit left off.

O=C(/C=C/C1CCN(CCc2ccccc2)CC1)NO ... 54.4
O=C(NO)c1ccc(CN2CCCCC2)cc1 ... 92.6
O=C(/C=C/C1CCN(Cc2cccc3ccccc23)CC1)NO ... 51.6
O=C(NO)c1ccc(CNCc2ccsc2)cc1 ... 81.5
O=C(/C=C/C1CCN(Cc2ccc(Cl)cc2)CC1)NO ... 84.6
O=C(NO)c1ccc(CNCc2cccs2)cc1 ... 71.6

Request the reported Activity associated with O=C(/C=C/C1CCN(Cc2cccc(Cl)c2)CC1)NO
88.6

And the next one, O=C(/C=C/C1CCN(Cc2csc3ccccc23)CC1)NO ?
88.2

And the next one, O=C(/C=C/C1CCN(Cc2ccc(-c3ccccc3)cc2)CC1)NO ?
55

And the next one, Cc1ccc(CN2CCC(/C=C/C(=O)NO)CC2)cc1 ?
104.9

----------
Biological target: Histone deacetylase 1 (Homo sapiens, UniProt Q13547)
Sequence (Q13547 whole entry): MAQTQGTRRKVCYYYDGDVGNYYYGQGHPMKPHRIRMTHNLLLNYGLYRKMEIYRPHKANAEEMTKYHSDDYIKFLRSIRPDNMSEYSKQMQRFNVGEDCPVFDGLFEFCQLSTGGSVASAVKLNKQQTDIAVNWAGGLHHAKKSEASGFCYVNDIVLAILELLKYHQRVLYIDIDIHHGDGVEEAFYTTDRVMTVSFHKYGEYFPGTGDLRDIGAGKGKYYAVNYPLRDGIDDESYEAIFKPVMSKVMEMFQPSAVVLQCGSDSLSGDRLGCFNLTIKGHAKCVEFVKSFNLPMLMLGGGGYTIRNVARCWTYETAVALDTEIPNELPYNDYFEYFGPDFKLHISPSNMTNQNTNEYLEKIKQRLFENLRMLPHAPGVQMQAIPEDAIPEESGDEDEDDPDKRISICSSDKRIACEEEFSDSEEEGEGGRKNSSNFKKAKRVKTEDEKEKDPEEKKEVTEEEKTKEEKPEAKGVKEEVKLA
Assay: Inhibition of recombinant human HDAC1 using ZMAL (Z-(Ac)Lys-AMC as substrate incubated for 20 mins at 1 uM and measured by homogenous fluorescence assay relative to control
Measured metric: inhibition
Report as: number unit

Some compounds with recorded inhibition:
O=C(NO)c1ccc(CNCc2ccsc2)cc1 ... 16%
O=C(/C=C/C1CCN(Cc2ccc(-c3ccccc3)cc2)CC1)NO ... 22%

Request the reported inhibition associated with O=C(NO)c1ccc(CNCc2ccccc2)cc1
19%

----------
Test system: HEK293
Assay: Cytotoxicity against human HEK293 cells assessed as cell viability at 50 uM measured after 24 hrs by Alamar Blue assay
Assay type: toxicity, cell-based
Conditions: hek293, 24 h
Measured metric: Activity (%)
The reply should be a number in %, with the unit left off.

Some compounds with recorded Activity:
O=C(/C=C/C1CCN(Cc2ccccc2)CC1)NO ... 100.9
O=C(/C=C/C1CCN(CCc2c[nH]c3ccccc23)CC1)NO ... 77.3
CN1CCN(Cc2ccc(C(=O)NO)cc2)CC1 ... 86.4
O=C(NO)c1ccc(CNCc2ccccc2)cc1 ... 77.1

Now for a further compound.
Request the reported Activity associated with Cn1cc(CN2CCC(/C=C/C(=O)NO)CC2)c2ccccc21
68.2
